System: Micrococcus luteus
procedure summary: Antimicrobial activity against Micrococcus luteus ATCC 4698 by microbroth dilution method
Format: functional
reported metric: MIC (µg/mL)
Expressed in µg/mL, but write only the number.

{"chemical string": "Cc1c(C(=O)NNCc2nc3ccccc3n2Cc2ccc(F)cc2F)sc(C(=O)NNCc2nc3ccccc3n2Cc2ccc(F)cc2F)c1C", "assay result": 256}
{"chemical string": "Cc1c(C(=O)NNCc2nc3ccccc3[nH]2)sc(C(=O)NNCc2nc3ccccc3[nH]2)c1C", "assay result": 256}
{"chemical string": "CCCCCCn1c(CNNC(=O)c2sc(C(=O)NNCc3nc4ccccc4n3CCCCCC)c(C)c2C)nc2ccccc21", "assay result": 64}

Okay, next one:
Ask | Dear colleague, I am looking for the recorded MIC of the following molecule: "ClCc1nc2ccccc2[nH]1"
Reply | 512

###

Test system: Candida
procedure summary: Antimicrobial activity against Candida mycoderma by microbroth dilution method
Type: functional
reported metric: log10 MIC (log10 of the value in µg/mL)
Scale: log10; quantity: MIC; unit before log: µg/mL

Ask | Dear colleague, I am looking for the recorded log10 MIC of the following compound: "CCCn1c(CNNC(=O)c2sc(C(=O)NNCc3nc4ccccc4n3CCC)c(C)c2C)nc2ccccc21.Cl"
Reply | 2.11

Ask | Dear colleague, I am looking for the recorded log10 MIC of the following compound: "CCCCCCCCCCCCn1c(CNNC(=O)c2sc(C(=O)NNCc3nc4ccccc4n3CCCCCCCCCCCC)c(C)c2C)nc2ccccc21"
Reply | 1.81

Ask | Dear colleague, I am looking for the recorded log10 MIC of the following compound: "Cc1c(C(=O)NNCc2nc3ccccc3n2Cc2ccc(F)cc2)sc(C(=O)NNCc2nc3ccccc3n2Cc2ccc(F)cc2)c1C.Cl"
Reply | 0.90

Ask | Dear colleague, I am looking for the recorded log10 MIC of the following compound: "OC(Cn1cncn1)(Cn1cncn1)c1ccc(F)cc1F"
Reply | 0.60

Ask | Dear colleague, I am looking for the recorded log10 MIC of the following compound: "Cc1c(C(=O)NN)sc(C(=O)NNCc2nc3ccccc3[nH]2)c1C"
Reply | 2.11

Ask | Dear colleague, I am looking for the recorded log10 MIC of the following compound: "Cc1c(C(=O)NNCc2nc3ccccc3n2Cc2ccccc2Cl)sc(C(=O)NNCc2nc3ccccc3n2Cc2ccccc2Cl)c1C"
Reply | 2.11

Ask | Dear colleague, I am looking for the recorded log10 MIC of the following compound: "CCCCCCCCCCn1c(CNNC(=O)c2sc(C(=O)NNCc3nc4ccccc4n3CCCCCCCCCC)c(C)c2C)nc2ccccc21"
Reply | 0.30

Ask | Dear colleague, I am looking for the recorded log10 MIC of the following compound: "CCCCCCn1c(CNNC(=O)c2sc(C(=O)NNCc3nc4ccccc4n3CCCCCC)c(C)c2C)nc2ccccc21"
Reply | 1.51

###

procedure summary: Lipophilicity, log P of the compound by UV-Vis spectrophotometric method based saturation shake flask assay
Assay type: physicochemical
setup conditions: octanol/water; read-out: logP
reported metric: logP
API note: the answer field is a bare number with no unit suffix.

Known logP results, listed for orientation:
{"chemical string": "Cc1c(C(=O)NNCc2nc3ccccc3[nH]2)sc(C(=O)NNCc2nc3ccccc3[nH]2)c1C", "assay result": 1.25}
{"chemical string": "Cc1c(C(=O)NNCc2nc3ccccc3n2Cc2ccc(Cl)c(Cl)c2)sc(C(=O)NNCc2nc3ccccc3n2Cc2ccc(Cl)c(Cl)c2)c1C", "assay result": 7.16}
{"chemical string": "Cc1c(C(=O)NNCc2nc3ccccc3n2Cc2cccc(Cl)c2)sc(C(=O)NNCc2nc3ccccc3n2Cc2cccc(Cl)c2)c1C", "assay result": 6.34}

Okay, next one:
Ask | Dear colleague, I am looking for the recorded logP of the following compound: "ClCc1nc2ccccc2[nH]1"
Reply | 1.44

All values here come from ChEMBL document CHEMBL2203243.
